- ASSAY PROTOCOL: yeast display, Sf9 membrane polyspecificity reagent, FACS + sequencing; frameworks hold sequencing errors
RECORDED METRIC: polyreactivity (PSR sort gate)

Look over these answered cases.
monomer_sequence=QVQLVESGGGLVQAGGSLRLSCAASGRIFGRYTMGWYRQAPGKERELVAAISARGGSPNYADSVKGRFTISRDNAKNTVYLQLNSLIPEDTAVYYCNTVRVHGFPIDRIYDYWGQVTQVTVSS observed_measurement="high polyreactivity"
monomer_sequence=QVQLVESGGGLVQAGGSLLISCAASGRTLDFNVMGWYRQAPGKERELVAAITWSGGSTYYADSVKGRFTISRDNAKNTVYLQMNSLKPEDTAVYYCAKDRWYWARRYDYWGQGTQVTVSS observed_measurement="high polyreactivity"
monomer_sequence=QVQLVESGGGLVQAGGSLRLTCAASGLTFERYAMGWYRQAPGKETELVAAISIRGGSTYYADSVKGRFTISRYNAKNTVYLQMNSLKPEVTAVYYCSADGRGREYDYWGQGTQVTVSS observed_measurement="low polyreactivity"
monomer_sequence=QVQLVESGGGLVQAGGSQRLSCAASGRIFPGNAMGWYRQAPGKERELVAAIRWSGGSTYYADSVKGRFTISRDNAKNTVYLQMNSLKPEDTAVFYCAKDRGSVFKRKYYYWGQGTQVTVSS observed_measurement="low polyreactivity"

Quick check: polyreactivity (PSR sort gate) of QDQLVESGGGLVQAGGSLRLSCAASGRTFWYYAMGWYRQATGKERELVAAISSRGGTTYYADSVKGRFTISRDNAKNTVYLQMNSVKPEDTAVYYCASERWDLWLLYDYWGQGTQVTVSS ?
high polyreactivity

Quick check: polyreactivity (PSR sort gate) of QVQLVESGGGLVQAGGSLRLSCAASGRTFYLYAMGWYRQAPGKERELVAAITWRGGSTYYADSVKGRFTISRDNAKNTVYLQMNSLKPEDTAVYYCSAVTFFYYSAVRYEYYYWGQGTQVTVSS ?
high polyreactivity

FYI, the data here is from the nanobody polyreactivity screen of Harvey et al. (2022).
